Would you kindly list hAMY3R EC50 (cAMP) for each of these binders?
Target: T1, hAMY3R (human, UniProt P30988)
T1 sequence 1: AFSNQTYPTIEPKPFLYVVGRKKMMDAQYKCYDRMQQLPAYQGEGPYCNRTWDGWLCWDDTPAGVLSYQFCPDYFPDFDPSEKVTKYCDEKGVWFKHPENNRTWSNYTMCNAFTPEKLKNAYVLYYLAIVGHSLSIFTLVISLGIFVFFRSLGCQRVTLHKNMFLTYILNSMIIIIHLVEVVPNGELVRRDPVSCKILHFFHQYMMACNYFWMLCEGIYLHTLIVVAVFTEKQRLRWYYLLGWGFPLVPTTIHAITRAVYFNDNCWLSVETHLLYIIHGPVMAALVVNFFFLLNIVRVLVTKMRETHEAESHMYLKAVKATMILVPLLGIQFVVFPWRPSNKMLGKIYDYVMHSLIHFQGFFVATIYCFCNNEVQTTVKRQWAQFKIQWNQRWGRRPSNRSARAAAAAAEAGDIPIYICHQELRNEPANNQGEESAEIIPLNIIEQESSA
T1 sequence 2: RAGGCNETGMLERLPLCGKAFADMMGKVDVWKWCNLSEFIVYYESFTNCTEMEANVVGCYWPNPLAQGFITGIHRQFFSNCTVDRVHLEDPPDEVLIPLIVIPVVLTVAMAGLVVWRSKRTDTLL
Assay: cell-based or functional assay
Bridge positions count the residues as written; N and C are the ends. Square brackets hold non-standard residues; d marks the D form. Ends that are not written are not given here. Hyp = O=C(O)[C@@H]1C[C@@H](O)CN1
Lab book: enter the figure in nM, no units written.

Problem: Bench note: what hAMY3R EC50 (cAMP) did KCNTATCTVQRLAEQIYQFTDKDKDNVAPPTNVGSNG[Hyp]-NH2 (disulfide 2-7 (inferred); not fully specified (N-terminus); ends not checked; also: N-terminal Lys carries two C20DA-OEG-γGlu-OEG arms ((...)2-K)) [SEQ ID NO: 233] show?
Result: 0.22

Problem: And for KCNTATCTVQWLAHQIYQFTDKAKDNVAPPTNVGSNG[Hyp]-NH2 (disulfide 2-7 (inferred); ends not checked) [SEQ ID NO: 320] ?
Result: 0.009
